Provenance of the data: PubChem BioAssay AID1918958

Assignment: determine reported viability, T/C for the given compounds.
Test system: NCI-H196 complex spheroid viability
test description: Anticancer human tumor NCI-H196 cell line growth inhibition [LSD1];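 also: spheroids exposed to agents for 7 days before readout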;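 as to viability, T/C: 100% = DMSO vehicle control viability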
reported conditions: second compound 10 µM; first compound 0.0949 µM; stronger effect = lower value
Give bare numbers, in %.

Solved entries:
# input Fill in the blank: the reported viability, T/C of COc1cc(C2c3cc4c(cc3C(OC3OC5COC(C)OC5C(O)C3O)C3COC(=O)C23)OCO4)cc(OC)c1O (centres undefined) + NC1CC1c1ccc(-c2cccc(O)c2)cc1 is ____.
# output 102

# input Likewise for CCc1c2c(nc3ccc(O)cc13)-c1cc3c(c(=O)n1C2)COC(=O)[C@]3(O)CC + NC1CCC(NC2CC2c2ccccc2)CC1 ?
# output 0.8

# input Likewise for Nc1ccn(C2OC(CO)C(O)C2(F)F)c(=O)n1 (centres undefined) + NC1CCC(NC2CC2c2ccccc2)CC1 ?
# output 65

Next, consider the following compound.
# input Fill in the blank: the reported viability, T/C of Nc1ncn(C2CC(O)C(CO)S2)c(=O)n1 (centres undefined) + NC1CC1c1ccc(-c2cccc(O)c2)cc1 is ____.
# output 103

====

Test system: NCI-H196 complex spheroid viability
test description: Anticancer human tumor NCI-H196 cell line growth inhibition [LSD1];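 also: spheroids exposed to agents for 7 days before readout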;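 as to viability, T/C: 100% = DMSO vehicle control viability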
reported conditions: second compound 10 µM; first compound 0.003 µM; stronger effect = lower value
measured parameter: viability, T/C (%)
One number for each entry, in %.

Solved entries:
# input Fill in the blank: the reported viability, T/C of Nc1ccn(C2OC(CO)C(O)C2(F)F)c(=O)n1 (stereo unspecified) + NC1CC1c1ccc(-c2cccc(O)c2)cc1 is ____.
# output 98.2

# input Likewise for Nc1ncn(C2CC(O)C(CO)S2)c(=O)n1 (stereo unspecified) + NC1CC1c1ccc(-c2cccc(O)c2)cc1 ?
# output 109

# input Likewise for CCc1c2c(nc3ccc(O)cc13)-c1cc3c(c(=O)n1C2)COC(=O)[C@]3(O)CC + NC1CC1c1ccc(-c2cccc(O)c2)cc1 ?
# output 82.7

# input Likewise for CCc1c2c(nc3ccc(O)cc13)-c1cc3c(c(=O)n1C2)COC(=O)[C@]3(O)CC + NC1CCC(NC2CC2c2ccccc2)CC1 ?
# output 98.7

# input Likewise for Nc1ccn(C2OC(CO)C(O)C2(F)F)c(=O)n1 (stereo unspecified) + NC1CCC(NC2CC2c2ccccc2)CC1 ?
# output 108

Next, consider the following compound.
# input Fill in the blank: the reported viability, T/C of Nc1ncn(C2CC(O)C(CO)S2)c(=O)n1 (stereo unspecified) + NC1CCC(NC2CC2c2ccccc2)CC1 is ____.
# output 105

====

Assignment: determine reported viability, T/C for the given molecules.
System: NCI-H196 complex spheroid viability
test description: Anticancer human tumor NCI-H196 cell line growth inhibition [LSD1];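 also: spheroids exposed to agents for 7 days before readout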;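 as to viability, T/C: 100% = DMSO vehicle control viability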
reported conditions: second compound 3.16 µM; first compound 0.00949 µM; stronger effect = lower value
Answers are plain numbers, in %.

Solved entries:
# input Fill in the blank: the reported viability, T/C of O=C(C=Cc1cccc(S(=O)(=O)Nc2ccccc2)c1)NO + NC1CCC(NC2CC2c2ccccc2)CC1 is ____.
# output 96.9

# input Likewise for CCN(c1cc(-c2ccc(CN3CCOCC3)cc2)cc(C(=O)NCc2c(C)cc(C)[nH]c2=O)c1C)C1CCOCC1 + NC1CC1c1ccc(-c2cccc(O)c2)cc1 ?
# output 98.4

# input Likewise for NS(=O)(=O)OCC1CC(n2ccc3c(NC4CCc5ccccc54)ncnc32)CC1O (configuration not stated) + NC1CCC(NC2CC2c2ccccc2)CC1 ?
# output 92.5

# input Likewise for CCc1c2c(nc3ccc(O)cc13)-c1cc3c(c(=O)n1C2)COC(=O)[C@]3(O)CC + NC1CCC(NC2CC2c2ccccc2)CC1 ?
# output 55.3

# input Likewise for COc1cc(C2c3cc4c(cc3C(OC3OC5COC(C)OC5C(O)C3O)C3COC(=O)C23)OCO4)cc(OC)c1O (configuration not stated) + NC1CCC(NC2CC2c2ccccc2)CC1 ?
# output 120

# input Likewise for Nc1ncn(C2CC(O)C(CO)S2)c(=O)n1 (configuration not stated) + NC1CC1c1ccc(-c2cccc(O)c2)cc1 ?
# output 106

Next, consider the following molecule.
# input Fill in the blank: the reported viability, T/C of Nc1ccccc1NC(=O)c1ccc(CNC(=O)OCc2cccnc2)cc1 + NC1CC1c1ccc(-c2cccc(O)c2)cc1 is ____.
# output 79.5

====

Test system: NCI-H196 complex spheroid viability
test description: Anticancer human tumor NCI-H196 cell line growth inhibition [LSD1];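 also: spheroids exposed to agents for 7 days before readout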;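 as to viability, T/C: 100% = DMSO vehicle control viability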
reported conditions: second compound 1 µM; first compound 0.00949 µM; stronger effect = lower value
Description: Multicellular complex tumor spheroid response to LSD1 Inhibitor Iadademstat in combination with a variety of drugs and investigational agents in selected tumor cell lines The current study was undertaken to assess response to LSD1 inhibitors in combination with standard-of-care drugs and investigational agents in solid tumor complex spheroid models as well as in the K-562 leukemia. […] Compounds. […] If the clinical Cmax for an agent had not been determined, the highest concentration tested was 10 microM. […]
Assignment: determine reported viability, T/C for the given compounds.
Numbers only, in %.

Solved entries:
# input Fill in the blank: the reported viability, T/C of Nc1ncn(C2CC(O)C(CO)S2)c(=O)n1 (centres undefined) + NC1CCC(NC2CC2c2ccccc2)CC1 is ____.
# output 113

# input Likewise for NS(=O)(=O)OCC1CC(n2ccc3c(NC4CCc5ccccc54)ncnc32)CC1O (centres undefined) + NC1CCC(NC2CC2c2ccccc2)CC1 ?
# output 103

Report viability, T/C for each item below.
1. Nc1ccn(C2OC(CO)C(O)C2(F)F)c(=O)n1 (centres undefined) + NC1CCC(NC2CC2c2ccccc2)CC1
2. CCN(c1cc(-c2ccc(CN3CCOCC3)cc2)cc(C(=O)NCc2c(C)cc(C)[nH]c2=O)c1C)C1CCOCC1 + NC1CC1c1ccc(-c2cccc(O)c2)cc1

# output
85
97.4

====

System: NCI-H196 complex spheroid viability
test description: Anticancer human tumor NCI-H196 cell line growth inhibition [LSD1]; active = viability on the fitted dose curve at most 10% of control; inactive = the rest;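 also: spheroids exposed to agents for 7 days before readout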
reported conditions: second compound 10 µM; first compound 0.0949 µM
Use one of these outcomes when replying: yes for active, no for inactive

# input How did this test come out for CCc1c2c(nc3ccc(O)cc13)-c1cc3c(c(=O)n1C2)COC(=O)[C@]3(O)CC + NC1CC1c1ccc(-c2cccc(O)c2)cc1 ?
# output yes

====

Test system: NCI-H196 complex spheroid viability
test description: Anticancer human tumor NCI-H196 cell line growth inhibition [LSD1];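 also: spheroids exposed to agents for 7 days before readout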
reported conditions: compound alone; run of 02/21/2022
pIC50: −log10 of the molar value.
measured parameter: pIC50

# input Fill in the blank: the reported pIC50 of NC1CC1c1ccc(-c2cccc(O)c2)cc1 (stereo unspecified) is ____.
# output < 5.00

====

Assignment: determine reported viability, T/C for the given molecules.
Tested on: NCI-H196 complex spheroid viability
test description: Anticancer human tumor NCI-H196 cell line growth inhibition [LSD1];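 also: spheroids exposed to agents for 7 days before readout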;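 as to viability, T/C: 100% = DMSO vehicle control viability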
reported conditions: second compound 0.316 µM; first compound 0.316 µM; stronger effect = lower value
One number for each entry, in %.

Solved entries:
# input Fill in the blank: the reported viability, T/C of CC1(C)CCC(CN2CCN(c3ccc(C(=O)NS(=O)(=O)c4ccc(NCC5CCOCC5)c([N+](=O)[O-])c4)c(Oc4cnc5[nH]ccc5c4)c3)CC2)=C(c2ccc(Cl)cc2)C1 + NC1CCC(NC2CC2c2ccccc2)CC1 is ____.
# output 98

# input Likewise for CC1COCCN1c1cc(C2(S(C)(=N)=O)CC2)nc(-c2ccnc3[nH]ccc23)n1 (centres undefined) + NC1CC1c1ccc(-c2cccc(O)c2)cc1 ?
# output 88

# input Likewise for COc1ccc([C@@H](O)c2cc(-c3ncnc4cc(N5CCOCC5)ccc34)c(F)cc2Cl)nn1 + NC1CCC(NC2CC2c2ccccc2)CC1 ?
# output 96.6

Next, consider the following molecule.
# input Fill in the blank: the reported viability, T/C of O=C(C=Cn1cnc(-c2cc(C(F)(F)F)cc(C(F)(F)F)c2)n1)NNc1cnccn1 + NC1CCC(NC2CC2c2ccccc2)CC1 is ____.
# output 14.5

====

Assignment: determine reported viability, T/C for the given molecules.
System: NCI-H196 complex spheroid viability
test description: Anticancer human tumor NCI-H196 cell line growth inhibition [LSD1];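 also: spheroids exposed to agents for 7 days before readout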;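 as to viability, T/C: 100% = DMSO vehicle control viability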
reported conditions: second compound 1 µM; first compound 0.00949 µM; stronger effect = lower value

Solved entries:
# input Fill in the blank: the reported viability, T/C of COc1cc(C2c3cc4c(cc3C(OC3OC5COC(C)OC5C(O)C3O)C3COC(=O)C23)OCO4)cc(OC)c1O (configuration not stated) + NC1CCC(NC2CC2c2ccccc2)CC1 is ____.
# output 89.5%

# input Likewise for CCc1c2c(nc3ccc(O)cc13)-c1cc3c(c(=O)n1C2)COC(=O)[C@]3(O)CC + NC1CC1c1ccc(-c2cccc(O)c2)cc1 ?
# output 51.1%

# input Likewise for NS(=O)(=O)OCC1CC(n2ccc3c(NC4CCc5ccccc54)ncnc32)CC1O (configuration not stated) + NC1CC1c1ccc(-c2cccc(O)c2)cc1 ?
# output 72.3%

# input Likewise for Nc1ccccc1NC(=O)c1ccc(CNC(=O)OCc2cccnc2)cc1 + NC1CCC(NC2CC2c2ccccc2)CC1 ?
# output 84.8%

Report viability, T/C for each item below.
1. CCN(c1cc(-c2ccc(CN3CCOCC3)cc2)cc(C(=O)NCc2c(C)cc(C)[nH]c2=O)c1C)C1CCOCC1 + NC1CCC(NC2CC2c2ccccc2)CC1
2. Nc1ccccc1NC(=O)c1ccc(CNC(=O)OCc2cccnc2)cc1 + NC1CC1c1ccc(-c2cccc(O)c2)cc1
3. Nc1ccn(C2OC(CO)C(O)C2(F)F)c(=O)n1 (configuration not stated) + NC1CC1c1ccc(-c2cccc(O)c2)cc1

# output
["92.5%", "80.2%", "75.6%"]
